Assay: amyloid nucleation score (Sup35N fusion, yeast selection) (log enrichment); library NNK2; higher = more nucleation; inactive = no reads after selection;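 further: zero at mode of non-aggregating sequences after 7 days selection at 30°C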
Measurement Label: amyloid nucleation score
One number for each entry.

RTGAMPSR; 0.518

Would you mind giving amyloid nucleation score for every substance in the list below?
1. VLNRLERASSVREQGIIRGR
2. RIATLSFDSAIIQVYLRGSG
3. ITTHMCYVFMWREIRAKDVD
4. ASFMSISVYND
5. MLVLSSFNCRLFKINRLR
6. WQCKLPSNYGFGTK
7. WYCMNSGASMLCGLRQARFL
8. DANTRGHSCRNCM

Response:
1. 0.252
2. 7.03
3. 0.484
4. -0.32
5. -0.268
6. 0.11
7. -0.715
8. 0.195

Would you mind giving amyloid nucleation score for every substance in the list below?
1. EFANWFVGYNQGSLGHALKQ
2. FISNYLMPV
3. LLPSGIIH
4. SGDLMYSGRTSPMPAAQKFV
5. LWEVLWVFFDLNNVRLTMCN
6. VTKVLQFCSPSYLLYSRLNV
7. LPIPIKETHLSCWAVDVGFD
8. GHYKISKAFTVTST

Response:
1. 0.355
2. 2.1
3. -0.815
4. -0.393
5. -0.93
6. 0.709
7. -0.052
8. 2.58

Would you mind giving amyloid nucleation score for every substance in the list below?
1. RVTHAFCSSINGTNANYPRR
2. GSFSGKYPRHR
3. GNYHFCRERGRVACW
4. FHPPTGPPYINEMIGASTDR
5. FLNHCDYCVVKSRLVDMKLN

Response:
1. 2.54
2. -0.266
3. -0.378
4. -0.069
5. -0.296

Would you mind giving amyloid nucleation score for every substance in the list below?
1. GYVFASSVD
2. LNSTGAQQFRTVEVYTSMQW
3. NVAMSCPRGRVPR
4. AVLLTMWYLNICTHIWVQTL
5. HSFGRKYFFTF
6. TGVFHSVCNIWCFHSKDPSN
7. ICLFDY
8. QYLSALSSAISGGDVYMMSK

Response:
[0.791, 2.81, 1.35, 0.139, -0.307, 7.54, -2.02, 5.15]

Would you mind giving amyloid nucleation score for every substance in the list below?
1. NYSNFTIKYLNLKRTLLDL
2. ELYRCA

Response:
[-1.74, 0.744]

Would you mind giving amyloid nucleation score for every substance in the list below?
1. CHCMLIG
2. AIVYDH
3. RFSGASNLVESPIKWIVGAH
4. GPLRNEASGIWKKPGQCMTD
5. RKVLLVNVLGSDEDTHLTRV
6. NNRSELVPKSANRMGFTSLA
7. LHNDLLKVNSERENNNDLGS

Response:
1. 3.46
2. -0.291
3. 4.96
4. -0.813
5. -0.973
6. -0.278
7. 0.089

Would you mind giving amyloid nucleation score for every substance in the list below?
1. SHTWKQMRYYLDNWSLY
2. DQEALGRLWYLFAHGSLVTR
3. ETCSAVFIN
4. RFDRTRCETKSRLVRIR
5. AHKKRDMWLRKPGL
6. GDAWGTSNIDQSWKLYLSGT

Response:
1: -0.288; 2: 0.847; 3: 0.041; 4: 0.084; 5: 1.68; 6: -0.12

Would you mind giving amyloid nucleation score for every substance in the list below?
1. YCPPFLHNTWAYAKRTGRGS
2. LSALCES
3. RLIACIRIVSVVVNAVSLKG
4. GAMNCRVSSKTRWCDTHMVP
5. LPGSYNYKGSHSQTNWFLDK
6. DRVCAGLKPVRNN
7. HCSWLYVLSYVSMSNICIGY

Response:
1: -0.137; 2: 0.98; 3: 1.79; 4: 1.53; 5: -2.09; 6: 0.836; 7: -0.876

These entries and their values trace back to the supplement of paper PMC12042874.
